Target: PARP-1 F2 G135D (Homo sapiens, UniProt P09874 103-214, G135D)
Sequence (P09874 103-214 G135D): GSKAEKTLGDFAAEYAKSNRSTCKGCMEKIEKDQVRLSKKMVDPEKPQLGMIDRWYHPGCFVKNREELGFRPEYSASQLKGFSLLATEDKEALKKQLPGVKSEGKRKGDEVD
Experiment: fluorescence anisotropy; 25 mM NaCl, one-site fit; 50 mM Tris-HCl pH 7.0, 150 uM ZnSO4, 4 mM DTT, 25 C; NaCl 0-200 mM (T2, as in cof; 10 nM DNA) or 25 mM (T3 mutants; 25 nM DNA)
Conditions: protein: recombinant; label: fluorescein-dT at T8; single-chain dumbbell, 18 bp with central nick, two tetraloops
value type: Kd
Please answer in the form of a number followed by its unit of measurement.

Entry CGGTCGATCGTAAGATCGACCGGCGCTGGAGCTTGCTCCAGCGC (structured_DNA, 5'-phosphate) [44-nt nicked dumbbell, 5'-phosphate, fluorescein-dT] ; Kd = 1710 nM
